system: 786-0 cells; experiment: Resazurin cell viability assay, with or without DFO and other inhibitors; type: cell-based, human; settings: Homo sapiens, 24 h, resazurin, with DFO 100 μM, read-out: cell viability IC50 in the presence of DFO
measurement-type: IC50 (µM)
One number for each entry, in µM.

Input `COc1ccc(-c2nnc(Nc3nc4c(OC)nccc4[nH]3)o2)cc1` . Output IC50: 83.6

###

test: Bioavailability studies; type: in vivo; details: mouse, in vivo; Swiss albino mice; read-out: half-life (converted)
measurement-type: half-life

Input COc1ccc(-c2nnc(Nc3nc4c(OC)nccc4[nH]3)o2)cc1OC [Compound 26HCL] . Output half-life: 3.61 h

###

tested on: HIF-2α transcriptional activity; assay: Hypoxia-responsive element-driven luciferase (HRE-Luc) screen; format: cell-based, human; conditions: 786-0 ccRCC cells stably expressing HRE-Luc; 24 h treatment; range of IC50 values
pIC50: −log10 of the molar value.
measurement-type: pIC50

Recorded pIC50, per entry:
# molecule, pIC50
records = [
    ("COc1cccc2nc(Nc3nnc(C4CCC(OC)CC4)o3)[nH]c12 (single isomer, unassigned) [Compound 75-isomer-2]", "4.30 to 5.00"),
    ("COc1nc(C)cc2[nH]c(Nc3nnc([C@H]4CC[C@H](OC)CC4)o3)nc12", "> 5.00"),
]

Now turn to the next molecule.
Input `COc1ccc(-c2nnc(Nc3nc4c(Cl)nccc4[nH]3)o2)cc1` . Output pIC50: 4.30 to 5.00

###

test: Bioavailability studies; format: in vivo; conditions: mouse, in vivo; Swiss albino mice, oral; read-out: Bioavailability F
measurement-type: bioavailability (%)
One number for each entry, in %.

Input COc1ccc(-c2nnc(Nc3nc4c(OC)nccc4[nH]3)o2)cc1OC [Compound 26HCL] . Output bioavailability: 27.3

###

Answer each item with its documented IC50.
system: HIF-2α transcriptional activity; experiment: Hypoxia-responsive element-driven luciferase (HRE-Luc) screen; format: cell-based, human; conditions: Homo sapiens, 786-0, 24 h, 786-0 ccRCC cells stably expressing HRE-Luc; 24 h treatment; range of IC50 values

Each compound below has a recorded value; state its IC50.
1. COc1nccc2[nH]c(Nc3nnc(-c4ccc5c(c4)OCO5)o3)nc12
2. COc1ccc(-c2nnc(Nc3nc4c(OC)nccc4[nH]3)o2)cc1F
3. Fc1ccc(-c2nnc(Nc3nc4ncccc4o3)o2)cc1
4. CCOc1ccc(-c2nnc(Nc3nc4c(OC)cccc4[nH]3)o2)cc1OCC
5. COc1cccc2nc(Nc3nnc(C4CCN(C)CC4)o3)[nH]c12
6. COc1ccc2[nH]c(Nc3nnc(-c4ccc(F)cc4)o3)nc2n1

A.
< 10 µM
> 10 µM
> 10 µM
> 100 µM
10 to 50 µM
< 10 µM

Each compound below has a recorded value; state its IC50.
1. COc1nccc2[nH]c(Nc3nnc(-c4ccc(F)cc4)o3)nc12
2. COc1nccc2[nH]c(Nc3nnc([C@H]4CC[C@@H](OC)CC4)o3)nc12
3. COc1nc(C)cc2[nH]c(Nc3nnc([C@H]4CC[C@@H](OC)CC4)o3)nc12
4. COc1ccc(-c2nnc(Nc3nc4c(OC)nccc4[nH]3)o2)cc1OC
5. COc1ccc(-c2nnc(Nc3nc4c(OC)cccc4[nH]3)o2)c(C)c1

A.
["< 10 µM", "< 10 µM", "< 10 µM", "< 10 µM", "> 100 µM"]

Each compound below has a recorded value; state its IC50.
1. COc1cccc2[nH]c(Nc3nnc(-c4ccc5c(c4)CCO5)o3)nc12
2. COc1cccc2nc(Nc3nnc(C4CCC(C(C)(C)C)CC4)o3)[nH]c12 (stereo not drawn)
3. COc1nccc2nc(Nc3nnc(C4CCN(C)CC4)o3)[nH]c12
4. Fc1ccc(-c2nnc(Nc3nc4cnc(Cl)nc4[nH]3)o2)cc1
5. COc1cccc2nc(Nc3nnc(N4CCC(OC)CC4)o3)[nH]c12
6. Fc1ccc(-c2nnc(Nc3nc4cnc(Cl)cc4[nH]3)o2)cc1
7. COc1nccc2[nH]c(Nc3nnc(-c4ccc(C(F)(F)F)cc4)o3)nc12

A.
["10 to 50 µM", "< 10 µM", "< 10 µM", "10 to 50 µM", "< 10 µM", "10 to 50 µM", "10 to 50 µM"]
